- assay target: CDK7/cyclinH/MAT1 trimeric complex (Homo sapiens, UniProt P50613)
- Sequence (P50613 whole entry): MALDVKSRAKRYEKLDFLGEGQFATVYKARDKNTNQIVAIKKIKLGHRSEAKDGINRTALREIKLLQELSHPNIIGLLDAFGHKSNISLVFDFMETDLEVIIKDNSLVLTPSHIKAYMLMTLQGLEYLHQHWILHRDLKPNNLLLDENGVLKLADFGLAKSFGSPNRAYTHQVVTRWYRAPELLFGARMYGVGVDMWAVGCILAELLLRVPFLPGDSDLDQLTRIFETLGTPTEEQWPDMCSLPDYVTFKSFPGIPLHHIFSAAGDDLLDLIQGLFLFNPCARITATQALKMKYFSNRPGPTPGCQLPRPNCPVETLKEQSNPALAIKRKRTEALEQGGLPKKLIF
- Sequence (P51946 whole entry partner): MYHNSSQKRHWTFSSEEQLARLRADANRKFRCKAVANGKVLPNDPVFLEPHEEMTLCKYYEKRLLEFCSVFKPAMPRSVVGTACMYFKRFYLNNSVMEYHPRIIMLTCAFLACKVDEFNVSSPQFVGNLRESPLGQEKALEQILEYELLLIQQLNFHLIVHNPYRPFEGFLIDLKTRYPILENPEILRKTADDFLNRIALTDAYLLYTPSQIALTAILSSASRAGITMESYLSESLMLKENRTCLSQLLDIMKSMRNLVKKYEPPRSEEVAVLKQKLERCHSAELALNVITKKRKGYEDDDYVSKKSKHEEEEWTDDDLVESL
- Sequence (P51948 whole entry partner): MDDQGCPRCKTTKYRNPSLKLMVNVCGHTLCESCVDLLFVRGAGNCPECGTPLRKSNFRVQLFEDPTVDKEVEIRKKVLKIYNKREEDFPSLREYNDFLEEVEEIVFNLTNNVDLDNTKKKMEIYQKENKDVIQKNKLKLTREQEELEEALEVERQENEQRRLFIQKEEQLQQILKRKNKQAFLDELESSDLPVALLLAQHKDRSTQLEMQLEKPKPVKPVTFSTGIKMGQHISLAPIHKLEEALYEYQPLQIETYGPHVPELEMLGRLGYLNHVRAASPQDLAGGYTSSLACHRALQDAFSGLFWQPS
- test name: In vitro CDK7 assay, potency of irreversible covalent inhibitors (kinact/KI), coupled PK/LDH ADP readout at 340 nm
- assay setup: read-out: CDK7 (20 nM enz.) (kinact/KI, M^−1*s^−1), 20 nM enzyme
readout label: kinact/KI (M⁻¹ s⁻¹)
Only the number, expressed in M⁻¹ s⁻¹, is required.

Asked: # input compound: CC#CC(=O)N1CC[C@@H](N2CC(c3cc4c(c(C5CC5)n3)OCc3c(N5CCOCC5)ccnc3N4)C2)C1 (single isomer, unassigned) ; wanted: its kinact/KI
Given back: 255

Asked: # input compound: CC#CC(=O)N1CC(N2CC(c3cc4c(c(CCC)n3)OCc3c(N5CCOCC5)ccnc3N4)C2)C1 ; wanted: its kinact/KI
Given back: 429

Asked: # input compound: CC#CC(=O)N1CC(N2CC(c3cc(C#N)c4c(c3)Nc3nccc(C5CCOCC5)c3[C@@H](C)O4)C2)C1 (single isomer, unassigned) ; wanted: its kinact/KI
Given back: 351

Continuing:
Asked: # input compound: C=CC(=O)Nc1cc(-c2ccc3c(c2)Nc2nccc(N4CCOCC4)c2CO3)ccn1 ; wanted: its kinact/KI
Given back: 1250

Asked: # input compound: C=CC(=O)N1CC[C@H](N2CC(c3cc4c(c(C)n3)OCc3c(N5CCOCC5)ccnc3N4)C2)C1 (single isomer, unassigned) ; wanted: its kinact/KI
Given back: 1180

---

- assay target: CDK7/cyclinH/MAT1 trimeric complex (Homo sapiens)
- test name: In vitro CDK7 assay, potency of irreversible covalent inhibitors (kinact/KI), coupled PK/LDH ADP readout at 340 nm
- assay setup: CDK7 (20 nM enz.) (KI, μM), 20 nM enzyme
Rule: Ki below 0.08 µM gives True, anything at or above gives False.

See these solved cases before continuing.
Asked: Just wondering, is Ki of C=CC(=O)N1CC(N2CC(c3cc4c(c(C#N)n3)OCc3c(N5CCOCC5)ccnc3N4)C2)C1 below 0.08 µM?
Given back: True

Asked: Just wondering, is Ki of C=CC(=O)N1CCC(N2CC(c3cc4c(c(C5CC5)n3)O[C@H](C)c3c(N5CCOCC5)ccnc3N4)C2)CC1 (single isomer, unassigned) below 0.08 µM?
Given back: True

Asked: Just wondering, is Ki of C=CC(=O)N1CC(N2CCC(c3ccc4c(c3)Nc3nccc(N5CCS(=O)(=O)CC5)c3CO4)CC2)C1 below 0.08 µM?
Given back: False

Continuing:
Asked: Just wondering, is Ki of C=CC(=O)N1CC(N2CCN(c3cc4c(c(C)n3)OCc3c(N5CCOCC5)ccnc3N4)CC2)C1 below 0.08 µM?
Given back: True

Asked: Just wondering, is Ki of C=CC(=O)N1CCC(N2CC(c3cc4c(c(C#N)n3)OCc3c(N5CCOCC5)ccnc3N4)C2)CC1 below 0.08 µM?
Given back: True

Asked: Just wondering, is Ki of C=CC(=O)N1CC2(CC(c3cc(F)c4c(c3)Nc3nccc(N5CCOCC5)c3CO4)C2)C1 below 0.08 µM?
Given back: False

---

The reader will find reported kinact values listed item by item below.
- assay target: CDK7/cyclinH/MAT1 trimeric complex (Homo sapiens)
- test name: In vitro CDK7 assay, potency of irreversible covalent inhibitors (kinact/KI), coupled PK/LDH ADP readout at 340 nm
- assay setup: read-out: CDK7 (20 nM enz.) (kinact, s^−1), 20 nM enzyme
Only the number, expressed in s⁻¹, is required.

Asked: # input molecule: C=CC(=O)N1CC[C@H](N2CCC(c3cc4c(c(C)n3)OCc3c(N5CCOCC5)ccnc3N4)CC2)C1 (single isomer, unassigned) [Compound 283] ; wanted: its kinact
Given back: 7.12e-05

Asked: # input molecule: C=CC(=O)N1CC(N2CCC(c3ccc4c(c3)Nc3nccc(N5CCOCC5)c3CO4)CC2)C1 ; wanted: its kinact
Given back: 5.28e-05

Asked: # input molecule: C=CC(=O)N1CC(N2CCC(c3cc(C#N)c4c(c3)Nc3nccc(N5CCOCC5)c3[C@H](C)O4)CC2)C1 (single isomer, unassigned) ; wanted: its kinact
Given back: 0.000132

Asked: # input molecule: C=CC(=O)N1CC(N2CCC(c3ccc4c(c3)Nc3nccc(C5CCOCC5)c3[C@H](C)O4)CC2)C1 (single isomer, unassigned) [Compound 98] ; wanted: its kinact
Given back: 5.61e-05

Asked: # input molecule: C=CC(=O)N1CC(N2CC(c3cc4c(c(C)n3)OCc3c(N5CCOCC5)ccnc3N4)C2)C1 ; wanted: its kinact
Given back: 4.74e-05

Asked: # input molecule: C=CC(=O)N1CC(c2ccnc(-c3ccc4c(c3)Nc3nccc(N5CCOCC5)c3CO4)c2)C1 ; wanted: its kinact
Given back: 4.84e-05

---

- assay target: CDK7/cyclinH/MAT1 trimeric complex (Homo sapiens, UniProt P50613)
- test name: In vitro CDK7 assay, potency of irreversible covalent inhibitors (kinact/KI), coupled PK/LDH ADP readout at 340 nm
- assay setup: CDK7 (20 nM enz.) (KI, μM), 20 nM enzyme
readout label: Ki (µM)
Only the number, expressed in µM, is required.

Asked: # input compound: C=CC(=O)N1CCC(N2CC(c3cc4c(c(C)n3)O[C@H](C)c3c(C5CCOCC5)ccnc3N4)C2)CC1 (single isomer, unassigned) ; wanted: its Ki
Given back: 0.0329

Asked: # input compound: C=CC(=O)N1CC[C@H](N2CC(c3cc4c(c(C5CC5)n3)OCc3c(N5CCOCC5)ccnc3N4)C2)C1 (single isomer, unassigned) [Compound 421] ; wanted: its Ki
Given back: 0.064

Asked: # input compound: C#Cc1cc2c(cc1C1CCN(C3CN(C(=O)C=C)C3)CC1)Nc1nccc(N3CCOCC3)c1CO2 ; wanted: its Ki
Given back: 0.0695

---

The reader will find reported kinact values listed item by item below.
- assay target: CDK7/cyclinH/MAT1 trimeric complex (Homo sapiens)
- test name: In vitro CDK7 assay, potency of irreversible covalent inhibitors (kinact/KI), coupled PK/LDH ADP readout at 340 nm
- assay setup: read-out: CDK7 (20 nM enz.) (kinact, s^−1), 20 nM enzyme
Only the number, expressed in s⁻¹, is required.

Before answering, review these 2 worked examples.
Asked: # input molecule: C=CC(=O)N1CC[C@H](N2CC(c3cc(C)c4c(c3)Nc3nccc(-c5cnn(C)c5)c3CO4)C2)C1 (single isomer, unassigned) [Compound 192] ; wanted: its kinact
Given back: 4.14e-05

Asked: # input molecule: CC#CC(=O)N1CC(N2CC[C@@H](c3cc4c(c(C)n3)O[C@@H](C)c3c(N5CCOCC5)ccnc3N4)C2)C1 (single isomer, unassigned) ; wanted: its kinact
Given back: 2.77e-05

Next up:
Asked: # input molecule: Cc1nc(C2CN(C3CCN(C(=O)/C=C/CN(C)C)CC3)C2)cc2c1OCc1c(-c3cnn(C)c3)ccnc1N2 ; wanted: its kinact
Given back: 1.52e-05

---

- assay target: CDK7/cyclinH/MAT1 trimeric complex (Homo sapiens, UniProt P50613)
- test name: In vitro CDK7 assay, potency of irreversible covalent inhibitors (kinact/KI), coupled PK/LDH ADP readout at 340 nm
- assay setup: read-out: CDK7 (20 nM enz.) (kinact/KI, M^−1*s^−1), 20 nM enzyme
readout label: kinact/KI (M⁻¹ s⁻¹)
Only the number, expressed in M⁻¹ s⁻¹, is required.

Before answering, review these 5 worked examples.
Asked: Find the measured kinact/KI: item C=C(C(=O)N1CC(N2CCC(c3cc4c(c(C)n3)O[C@H](C)c3c(N5CCOCC5)ccnc3N4)CC2)C1)n1cccn1 (single isomer, unassigned) , target or system CDK7/cyclinH/MAT1 trimeric complex (Homo sapiens, UniProt P50613).
Given back: 340

Asked: Find the measured kinact/KI: item CC#CC(=O)N1CCC(N2CC(c3cc(C)c4c(c3)Nc3nccc(C5CCOCC5)c3CO4)C2)C1 (stereo not drawn) , target or system CDK7/cyclinH/MAT1 trimeric complex (Homo sapiens, UniProt P50613).
Given back: 483

Asked: Find the measured kinact/KI: item C=CC(=O)N1CC(N2CCC(c3cc(C)c4c(c3)Nc3nccc(C5CCS(=O)(=O)CC5)c3CO4)CC2)C1 , target or system CDK7/cyclinH/MAT1 trimeric complex (Homo sapiens, UniProt P50613).
Given back: 715

Asked: Find the measured kinact/KI: item CC#CC(=O)N1CC[C@H](N2CC(c3cc(C)c4c(c3)Nc3nccc(C5CCOCC5)c3CO4)C2)C1 (single isomer, unassigned) , target or system CDK7/cyclinH/MAT1 trimeric complex (Homo sapiens, UniProt P50613).
Given back: 354

Asked: Find the measured kinact/KI: item C=CC(=O)N1CC(c2ccnc(-c3ccc4c(c3)Nc3nccc(N5CCOCC5)c3CO4)c2)C1 , target or system CDK7/cyclinH/MAT1 trimeric complex (Homo sapiens, UniProt P50613).
Given back: 36.6

Continuing:
Asked: Find the measured kinact/KI: item C=C(C(=O)N1CC[C@H](N2CCC(c3cc4c(c(C)n3)OCc3c(-c5cnn(C)c5)ccnc3N4)CC2)C1)n1cccn1 (single isomer, unassigned) , target or system CDK7/cyclinH/MAT1 trimeric complex (Homo sapiens, UniProt P50613).
Given back: 603

Asked: Find the measured kinact/KI: item C=CC(=O)N1CC[C@@H](N2CC(c3cc4c(c(C(F)(F)F)n3)OCc3c(-c5cnn(C)c5)ccnc3N4)C2)C1 (single isomer, unassigned) , target or system CDK7/cyclinH/MAT1 trimeric complex (Homo sapiens, UniProt P50613).
Given back: 754

Asked: Find the measured kinact/KI: item C=CC(=O)N1CCC(N2CC(c3cc4c(c(C#N)n3)O[C@H](C)c3c(N5CCOCC5)ccnc3N4)C2)CC1 (single isomer, unassigned) , target or system CDK7/cyclinH/MAT1 trimeric complex (Homo sapiens, UniProt P50613).
Given back: 305

Asked: Find the measured kinact/KI: item CC#CC(=O)N1CC(N2CC(c3cc4c(c(C)n3)O[C@H](C)c3c(C5CCOCC5)ccnc3N4)C2)C1 (single isomer, unassigned) , target or system CDK7/cyclinH/MAT1 trimeric complex (Homo sapiens, UniProt P50613).
Given back: 129
